# Assay target: T1, soluble HLA-A2 MAGE-A4 (…) tetramer (human)
# T1 construct: Bought tetramer reagent; also called MAGE-A4/HLA tetramer reagent; HLA-A02:01 MAGE-A4 tetramer
# Assay overview: flow cytometry, HLA-A2 MAGE-A4 (…) tetramer staining of CHO cells transfected with the TCR
Measurement kind: % tetramer in Ag+ gate (MAGE-A4) (%)
Write it as a number; the unit % goes unstated.

Asked: Name the recorded % tetramer in Ag+ gate (MAGE-A4) of the binder listed here: PN45581 (TCR, V domains shown, stained with anti-mouse TCR constant region H57-597; full-length chains on transfected CHO cells; also called TCR No. 44) V domain 1: AQKITQTQPGMFVQEKEAVTLDCTYDTSDPSYGLFWYKQPSSGEMIFLIYQGSYDQQNATEGRYSLNFQKARKSANLVISASQLGDSAMYFCAMREGPGNNARLMFGDGTQLVVKP V domain 2: EAQVTQTPRYLITVTGKKLTVTCSQNMNHEYMSWYRQDPGLGLRQIYYSMNVEVTDKGDVPEGYKVSRKEKRNFPLILESPSPNQTSLYFCASSLWTGGGYTFGSGTRLTVV
Given back: 3.18

Kindly consider the entry below.
Asked: Name the recorded % tetramer in Ag+ gate (MAGE-A4) of the binder listed here: PN45489 (TCR, V domains shown, stained with anti-mouse TCR constant region H57-597; full-length chains on transfected CHO cells; also called TCR No. 48) V domain 1: TQLLEQSPQFLSIQEGENLTVYCNSSSVFSSLQWYRQEPGEGPVLLVTVVTGGEVKKLKRLTFQFGDARKDSSLHITAAQPGDTGLYLCAEDGGSQGNLIFGKGTKLSVKP V domain 2: DVKVTQTSRYLVKRTGEKVFLECVQDMDHENMFWYRQDPGLGLRLIYFSYDVKMKEKGDIPEGYSVSREKKERFSLILESASTNQTSMYLCASSLQGRYYGYTFGSGTRLTVV
Given back: 16
